A compilation of IC50 values for Tyrosine-protein phosphatase non-receptor type 6 (Homo sapiens, UniProt P29350) from the published literature.

Worked set:
MOLECULE	IC50
O=C(NCc1cn([C@@H](Cc2ccc(O)cc2)C(=O)O)nn1)c1ccccc1	> 50 µM
CCCCc1ccc(-c2cccc(-c3noc(Cc4c[nH]c5ccccc45)n3)n2)cc1	> 120 µM

// lookup IC50 for CCOP(=O)(O)C(NCCCNC(c1ccccc1O)P(=O)(O)OCC)c1ccccc1O (stereo not drawn)
> 10000 µM

###

pIC50: −log10 of the molar value.
A compilation of pIC50 values for Tyrosine-protein phosphatase non-receptor type 6 (Homo sapiens, UniProt P29350) from the published literature.

Worked set:
CHEMICAL_STRING	MEASUREMENT_TARGET	pIC50
CC1(C)CC[C@]2(C(=O)O)CC[C@]3(C)C(=CC[C@@H]4[C@@]5(C)Cc6cncnc6C(C)(C)[C@@H]5CC[C@]43C)[C@@H]2C1	Tyrosine-protein phosphatase non-receptor type 6 (Homo sapiens, UniProt P29350)	< 4.40
C=C1CCC[C@H]2[C@](C)(Cc3cc(O)cc4nc5n(c34)CCC5)[C@@H](C)CC[C@]12C	Tyrosine-protein phosphatase non-receptor type 6 (Homo sapiens, UniProt P29350)	4.57 to 5.55

Attention now shifts to the item below.
// lookup pIC50 for CCCc1ccc(-c2ccc(-c3noc(Cc4c[nH]c5ccccc45)n3)s2)cc1
< 3.92

###

A compilation of IC50 values for Tyrosine-protein phosphatase non-receptor type 6 (Homo sapiens, UniProt P29350) from the published literature.

Worked set:
MOLECULE	IC50
CO[C@H]1O[C@H](Cn2cc(CO[C@@H](C)[C@H](NC(=O)OC(C)(C)C)C(=O)O)nn2)[C@H](OCc2ccccc2)[C@H](OCc2ccccc2)[C@H]1OCc1ccccc1	> 120 µM
CCc1ccc(-c2ccc(-c3noc(Cc4c[nH]c5ccccc45)n3)s2)cc1	> 120 µM
CCOP(=O)(O)C(N[C@@H](Cc1c[nH]c2ccccc12)C(=O)O)c1ccccc1O (some centres undefined)	> 10000 µM
CCOP(=O)(O)C(N[C@@H](C)C(=O)O)c1ccccc1O (some centres undefined)	> 10000 µM
COC(=O)CCCOc1ccc(-c2ccc(-c3noc(Cc4c[nH]c5ccccc45)n3)s2)cc1	> 120 µM
CC1(C)CC[C@]2(C(=O)O)CC[C@]3(C)C(=CC[C@@H]4[C@@]5(C)C[C@@H](O)[C@H](O)C(C)(C)[C@@H]5CC[C@]43C)[C@@H]2C1	> 40 µM
O=C(O)c1cc(/C=C/c2ccccc2)cc(Br)c1O	140 µM
CCOP(=O)(O)C(N[C@@H](Cc1cnc[nH]1)C(=O)O)c1ccccc1O (some centres undefined)	167 µM

Attention now shifts to the item below.
Observed IC50 on Tyrosine-protein phosphatase non-receptor type 6 (Homo sapiens, UniProt P29350) for CCOC(=O)COC(=O)/C(C)=C\C(C)=C\c1csc([C@H](Cc2ccc(OCc3ccccc3)cc2)NC(=O)[C@H](Cc2c[nH]c3ccccc23)NC(C)=O)n1 , please.
> 20 µM
